- STUDY TARGET: EGFR L858R (BaF3-L858R cells) (Homo sapiens, UniProt P00533, L858R)
- Construct: host or cells: BaF3
- Sequence (P00533 25-1210 L858R): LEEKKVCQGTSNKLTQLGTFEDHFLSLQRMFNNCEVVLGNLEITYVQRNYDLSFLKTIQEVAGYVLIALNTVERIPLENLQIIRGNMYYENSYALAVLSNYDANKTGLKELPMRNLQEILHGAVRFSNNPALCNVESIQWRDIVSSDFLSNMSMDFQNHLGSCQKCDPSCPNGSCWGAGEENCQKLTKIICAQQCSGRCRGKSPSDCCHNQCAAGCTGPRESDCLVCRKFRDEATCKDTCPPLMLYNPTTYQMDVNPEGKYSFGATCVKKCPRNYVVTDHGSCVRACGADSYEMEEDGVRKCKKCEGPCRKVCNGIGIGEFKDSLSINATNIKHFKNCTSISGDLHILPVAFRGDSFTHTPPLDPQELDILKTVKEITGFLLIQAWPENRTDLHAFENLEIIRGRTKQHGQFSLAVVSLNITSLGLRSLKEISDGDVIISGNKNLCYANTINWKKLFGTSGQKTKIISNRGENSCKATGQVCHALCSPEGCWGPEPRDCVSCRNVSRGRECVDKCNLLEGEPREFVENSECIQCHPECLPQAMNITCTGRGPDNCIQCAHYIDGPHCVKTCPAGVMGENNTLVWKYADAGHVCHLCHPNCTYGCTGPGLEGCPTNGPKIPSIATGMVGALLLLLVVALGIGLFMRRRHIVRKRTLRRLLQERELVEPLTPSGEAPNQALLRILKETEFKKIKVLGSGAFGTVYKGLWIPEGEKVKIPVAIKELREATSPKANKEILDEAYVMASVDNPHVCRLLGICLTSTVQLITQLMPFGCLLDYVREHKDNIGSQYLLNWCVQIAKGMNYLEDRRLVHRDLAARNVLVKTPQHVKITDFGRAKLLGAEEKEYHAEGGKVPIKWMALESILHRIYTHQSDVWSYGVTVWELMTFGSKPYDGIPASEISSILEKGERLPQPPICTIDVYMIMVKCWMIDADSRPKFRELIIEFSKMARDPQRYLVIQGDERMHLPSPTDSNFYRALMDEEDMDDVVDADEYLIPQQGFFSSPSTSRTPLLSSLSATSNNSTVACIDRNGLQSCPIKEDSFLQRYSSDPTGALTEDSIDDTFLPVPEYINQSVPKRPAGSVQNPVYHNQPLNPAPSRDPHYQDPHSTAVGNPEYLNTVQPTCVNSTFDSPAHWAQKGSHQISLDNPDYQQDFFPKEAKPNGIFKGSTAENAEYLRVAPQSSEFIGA
- EXPERIMENT NOTES: Cell degradation of EGFR, HTRF assay, BaF3-L858R cells
- Assay type: cell-based
- CONDITION SET: 16 h treatment, EGFR degradation

COMPOUND | UNIT TEXT | DC50
Cc1cc2cc(n1)-c1c(C)nn(C)c1OC[C@H]1CCC(C1)CN1/C(=N/C2=O)Nc2ccc(N3CCN([C@@H]4CCN(c5cc(F)c(C6CCC(=O)NC6=O)nc5C)C[C@@H]4F)CC3)cc21 (some centres unmarked) [Example 82] | nM | 0.31
Cc1cc2cc(n1)-c1cnn(C)c1OC[C@H]1CCC(C1)CN1/C(=N/C2=O)Nc2ccc(N3CCC(CN4CCC(Nc5cc(F)c([C@H]6CCC(=O)NC6=O)c(F)c5)CC4)CC3)cc21 [Example 131] | nM | 4.84
Cc1cc2cc(n1)-c1cnn(C)c1OC[C@H]1CC[C@H](C1)CN1/C(=N/C2=O)Nc2ccc(N3CCN(C4CCN(c5cc(F)c(C6CCC(=O)NC6=O)nc5C)CC4)CC3)cc21 (some centres unmarked) [Example 6] | nM | 3.1
Cc1cc2cc(n1)-c1cnn(C)c1OC[C@H]1CC[C@H](C1)CN1/C(=N/C2=O)Nc2ccc(N3CCN(CC4CN(c5c(C)cc(C6CCC(=O)NC6=O)nc5C)C4)CC3)cc21 (some centres unmarked) [Example 8] | nM | 3.2
Cc1cc2cc(n1)-c1cnn(C)c1OC[C@H]1CCC(C1)CN1/C(=N/C2=O)Nc2ccc(N3CCN(C4CCN(c5cc(F)c(C6CCC(=O)NC6=O)c(F)c5)CC4)[C@@H](C)C3)cc21 (some centres unmarked) [Example 119] | nM | 2.47

* * *

In this section we review reported DC50 values for a set of molecules.
- STUDY TARGET: EGFR-L858R/C797S (H1975-clone #8 cells) (Homo sapiens, UniProt P00533, C797S/L858R)
- Construct: expressed in transfected cells; host or cells: H1975 (endogenous EGFR knocked out, clone #8)
- Sequence (P00533 25-1210 C797S/L858R): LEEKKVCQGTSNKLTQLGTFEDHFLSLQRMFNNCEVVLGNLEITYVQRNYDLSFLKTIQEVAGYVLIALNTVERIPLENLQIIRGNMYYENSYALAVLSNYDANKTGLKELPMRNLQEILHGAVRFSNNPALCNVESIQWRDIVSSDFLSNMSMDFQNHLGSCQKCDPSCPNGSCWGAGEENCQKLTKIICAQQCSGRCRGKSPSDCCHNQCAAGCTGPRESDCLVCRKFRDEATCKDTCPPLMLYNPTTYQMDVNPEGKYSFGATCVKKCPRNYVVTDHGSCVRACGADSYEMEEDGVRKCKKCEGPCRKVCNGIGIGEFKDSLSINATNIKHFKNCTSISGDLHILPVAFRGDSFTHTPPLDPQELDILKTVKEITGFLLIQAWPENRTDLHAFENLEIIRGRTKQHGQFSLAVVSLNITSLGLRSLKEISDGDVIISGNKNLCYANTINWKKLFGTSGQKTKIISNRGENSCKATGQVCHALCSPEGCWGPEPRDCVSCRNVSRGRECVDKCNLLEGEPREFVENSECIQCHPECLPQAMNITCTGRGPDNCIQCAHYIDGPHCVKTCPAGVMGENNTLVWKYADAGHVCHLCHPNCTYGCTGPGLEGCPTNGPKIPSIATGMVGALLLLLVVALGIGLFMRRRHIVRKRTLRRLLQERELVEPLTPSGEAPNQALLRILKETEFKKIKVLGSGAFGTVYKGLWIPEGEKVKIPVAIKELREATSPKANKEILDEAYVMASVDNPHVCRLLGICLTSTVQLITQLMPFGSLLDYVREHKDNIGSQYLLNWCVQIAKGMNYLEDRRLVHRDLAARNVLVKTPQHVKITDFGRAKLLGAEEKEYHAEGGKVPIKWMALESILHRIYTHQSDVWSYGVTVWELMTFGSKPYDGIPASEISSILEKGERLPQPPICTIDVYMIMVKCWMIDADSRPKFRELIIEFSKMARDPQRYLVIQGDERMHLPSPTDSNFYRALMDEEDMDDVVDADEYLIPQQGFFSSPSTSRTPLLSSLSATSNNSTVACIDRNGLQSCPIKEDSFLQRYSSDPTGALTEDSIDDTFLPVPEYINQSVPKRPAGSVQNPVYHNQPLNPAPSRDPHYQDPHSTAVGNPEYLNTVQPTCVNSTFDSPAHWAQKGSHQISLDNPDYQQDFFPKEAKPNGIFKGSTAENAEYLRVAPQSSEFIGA
- EXPERIMENT NOTES: Cell degradation of EGFR, HTRF assay, H1975-clone#8 (L858R/C797S) cells
- Assay type: cell-based
- CONDITION SET: 16 h treatment, EGFR degradation

MOLECULE | DC50 (nM)
COC[C@H]1CN(c2cc3c(cc2C)N/C2=N\C(=O)c4cc(C)nc(c4)-c4c(C)nn(C)c4OC[C@H]4CC[C@H](C4)CN23)CCN1C1CCN(c2cc(F)c([C@H]3CCC(=O)NC3=O)c(F)c2)CC1 | 0.909
COC[C@@H]1CN(c2ccc3c(c2)N2CC4CC[C@H](COc5c(cnn5C)-c5cc(cc(C)n5)C(=O)/N=C/2N3)C4)CCN1C1CCN(c2cc(F)c(C3CCC(=O)NC3=O)nc2C)CC1 (some centres unmarked) | 4.11
COC[C@@H]1CN(c2cc3c(cc2F)N/C2=N\C(=O)c4cc(C)nc(c4)-c4cnn(C)c4OC[C@H]4CCC(C4)CN23)CCN1C1CCN(c2cc(F)c([C@H]3CCC(=O)NC3=O)c(F)c2)CC1 | 8.71
Cc1cc2cc(n1)-c1c(C)nn(C)c1OC[C@H]1CC[C@H](C1)CN1/C(=N/C2=O)Nc2ccc(N3CCN(C4CCN(c5cc(F)c([C@H]6CCC(=O)NC6=O)c(F)c5)CC4)C[C@@H]3CF)cc21 | 3.07
Cc1cc2cc(n1)-c1c(C)nn(C)c1OC[C@H]1CC[C@H](C1)CN1/C(=N/C2=O)Nc2ccc(N3CCC(C)(CN(C)C4CCN(c5cc(F)c([C@H]6CCC(=O)NC6=O)c(F)c5)CC4)CC3)cc21 | 3.07

* * *

- STUDY TARGET: EGFR-L858R/C797S (H1975-clone #8 cells) (Homo sapiens, UniProt P00533, C797S/L858R)
- Construct: expressed in transfected cells; host or cells: H1975 (endogenous EGFR knocked out, clone #8)
- EXPERIMENT NOTES: Cell degradation of EGFR, HTRF assay, H1975-clone#8 (L858R/C797S) cells
- Format: cell-based
- CONDITION SET: 16 h treatment, maximum percentage of degradation

COMPOUND | UNIT TEXT | Dmax
COC[C@@H]1CN(c2ccc3c(c2)N2CC4CC[C@H](COc5c(cnn5C)-c5cc(cc(C)n5)C(=O)/N=C/2N3)C4)CCN1C1CCN(c2cc(F)c(C3CCC(=O)NC3=O)nc2C)CC1 (some centres unmarked) | % | 73.5
COC[C@H]1CN(c2ccc3c(c2)N2CC4CC[C@H](COc5c(c(C)nn5C)-c5cc(cc(C)n5)C(=O)/N=C/2N3)C4)CCN1C1CCN(c2cc(F)c([C@H]3CCC(=O)NC3=O)c(F)c2)CC1 | % | 88.7
Cc1cc2cc(n1)-c1c(C)nn(C)c1OC[C@H]1CC[C@H](C1)CN1/C(=N/C2=O)Nc2ccc(N3CCN(CCC4CCN(c5cc(F)c([C@H]6CCC(=O)NC6=O)c(F)c5)CC4)CC3)cc21 | % | 91.2
COC[C@H]1CN(c2ccc3c(c2)N2CC4CC[C@H](COc5c(c(C(F)F)nn5C)-c5cc(cc(C)n5)C(=O)/N=C/2N3)C4)CCN1C1CCN(c2cc(F)c([C@H]3CCC(=O)NC3=O)c(F)c2)CC1 | % | 86.9
Cc1cc2cc(n1)-c1c(C)nn(C)c1OC[C@H]1CC[C@H](C1)CN1/C(=N/C2=O)Nc2ccc(N3CC4CCC3CN4C3CCN(c4cc(F)c([C@H]5CCC(=O)NC5=O)c(F)c4)CC3)cc21 | % | 70.8

* * *

- STUDY TARGET: EGFR L858R (BaF3-L858R cells) (Homo sapiens, UniProt P00533, L858R)
- Construct: host or cells: BaF3
- EXPERIMENT NOTES: Cell degradation of EGFR, HTRF assay, BaF3-L858R cells
- Assay type: cell-based
- CONDITION SET: 16 h treatment, maximum percentage of degradation
Listed compounds paired with reported Dmax

COMPOUND | Dmax [%]
COC[C@H]1CN(c2ccc3c(c2)N2C[C@@H]4CC[C@H](COc5c(c(C)nn5CCO)-c5cc(cc(C)n5)C(=O)/N=C/2N3)C4)CCN1C1CCN(c2cc(F)c([C@H]3CCC(=O)NC3=O)c(F)c2)CC1 | 87.4
Cc1cc2cc(n1)-c1c(C)nn(C)c1OC[C@H]1CC[C@H](C1)CN1/C(=N/C2=O)Nc2ccc(N3CCN(CCC4CCN(c5cc(F)c([C@H]6CCC(=O)NC6=O)c(F)c5)CC4)CC3)cc21 | 91.6
COC[C@H]1CN(c2ccc3c(c2)N2C[C@@H]4CC[C@H](COc5c(c(C)nn5C)-c5cc(cc(C)n5)C(=O)/N=C/2N3)C4)CCN1C1CN(C2CCN(c3cc(F)c([C@H]4CCC(=O)NC4=O)c(F)c3)CC2)C1 | 92.1
Cc1cc2cc(n1)-c1c(C)nn(C)c1OC[C@H]1CC[C@H](C1)CN1/C(=N/C2=O)Nc2ccc(N3CCN(C4CCN(c5cc(F)c([C@H]6CCC(=O)NC6=O)c(F)c5)CC4)C(=O)C3)cc21 | 92.7
Cc1cc2cc(n1)-c1cnn(C)c1OC[C@@H]1CC[C@@H](C1)CN1/C(=N/C2=O)Nc2ccc(N3CCN(C4CCN(c5ccc(C6CCC(=O)NC6=O)nc5C)CC4)CC3)cc21 (stereo partly drawn) | 72.7
Cc1cc2cc(n1)-c1c(C)nn(C)c1OC[C@H]1CC[C@H](C1)CN1/C(=N/C2=O)Nc2ccc(N3CCC(N(C)C4CN(c5cc(F)c([C@H]6CCC(=O)NC6=O)c(F)c5)C4)CC3)cc21 | 80.3
Cc1cc2cc(n1)-c1c(C)nn(C)c1OC[C@H]1CC[C@H](C1)CN1/C(=N/C2=O)Nc2ccc(N3CC4CCC3CN4C3CCN(c4cc(F)c([C@H]5CCC(=O)NC5=O)c(F)c4)CC3)cc21 | 76.2
Cc1cc2cc(n1)-c1c(C)nn(C)c1OC[C@H]1CC[C@H](C1)CN1/C(=N/C2=O)Nc2ccc(N3C[C@@H](C)N(C4CCN(c5cc(F)c([C@H]6CCC(=O)NC6=O)c(F)c5)CC4)C[C@H]3C)cc21 | 91.9
Cc1cc2cc(n1)-c1cnn(C)c1OC[C@H]1CC[C@H](C1)CN1/C(=N/C2=O)Nc2ccc(N3CCN(C4CCN(c5ccc(NC6CCC(=O)NC6=O)cc5F)CC4)CC3)cc21 (stereo partly drawn) | 85.1

* * *

- STUDY TARGET: EGFR L858R (BaF3-L858R cells) (Homo sapiens, UniProt P00533, L858R)
- Construct: host or cells: BaF3
- EXPERIMENT NOTES: Cell degradation of EGFR, HTRF assay, BaF3-L858R cells
- Format: cell-based
- CONDITION SET: 16 h treatment, EGFR degradation
MEASURE: DC50 (nM)

MOLECULE | RECORDED MEASUREMENT
Cc1cc2cc(n1)-c1cnn(C)c1OC[C@H]1CCC(C1)CN1/C(=N/C2=O)Nc2ccc(N3CCC(N4CCC(Nc5cc(F)c([C@H]6CCC(=O)NC6=O)c(F)c5)CC4)CC3)cc21 (single isomer, unassigned) | 1.25
COC[C@@H]1CN(c2ccc3c(c2)N2CC4CC[C@H](COc5c(cnn5C)-c5cc(cc(C)n5)C(=O)/N=C/2N3)C4)CCN1C1CN(C2CCN(c3cc(F)c([C@H]4CCC(=O)NC4=O)c(F)c3)CC2)C1 | 3.32
